Tested on: PC-3
Assay: Growth inhibitory activity against PC-3 (human prostate) cancer cell line at 100 uM dose.
Type: functional
observation type: Cell survival (%)
Give just the number in %; leave the unit off.

[
  {
    "molecule": "CC(C)=CCc1[nH]c2ccccc2c1C[C@H]1NC(=O)[C@H]2CCCN2C1=O",
    "system name": "PC-3",
    "output unit": "%",
    "Cell survival": 78.9
  }
]

Would you kindly look at the next entry?
Req: Which value of Cell survival has been reported for CC(C)=CCc1[nH]c2ccccc2c1C[C@H]1NC(=O)[C@@H]2CCCN2C1=O in the records?
Resp: 68.5

====

System: MCF7
Test: Growth inhibitory activity against MCF-7 (human breast) cancer cell line at 100 uM dose.
Assay type: functional
Recorded Cell survival values for a group of compounds are listed next.
Give just the number in %; leave the unit off.

Known results for compounds:
[
  {
    "compound": "CC(C)=CCc1[nH]c2ccccc2c1C[C@@H]1NC(=O)[C@@H]2CCCN2C1=O [TRYPROSTATIN B]",
    "system name": "MCF7",
    "observation type": "Cell survival",
    "recorded number": 66.7
  },
  {
    "compound": "COc1ccc2c(C[C@@H]3NC(=O)[C@H]4CCCN4C3=O)c(CC=C(C)C)[nH]c2c1",
    "system name": "MCF7",
    "observation type": "Cell survival",
    "recorded number": 99
  },
  {
    "compound": "COc1ccc2c(C[C@@H]3NC(=O)[C@@H]4CCCN4C3=O)c(CC=C(C)C)[nH]c2c1 [TRYPROSTATIN A]",
    "system name": "MCF7",
    "observation type": "Cell survival",
    "recorded number": 95
  }
]

Would you kindly look at the next entry?
Req: Which value of Cell survival has been reported for CC(C)=CCc1[nH]c2ccccc2c1C[C@@H]1NC(=O)[C@H]2CCCN2C1=O in the records?
Resp: 0
